Property: DC50; scope: individual compounds
# assay_target: IRAK4 (Homo sapiens)
# Construct: endogenous in cells; host or cells: OCI-LY10
# Sequence (Q9NWZ3 whole entry): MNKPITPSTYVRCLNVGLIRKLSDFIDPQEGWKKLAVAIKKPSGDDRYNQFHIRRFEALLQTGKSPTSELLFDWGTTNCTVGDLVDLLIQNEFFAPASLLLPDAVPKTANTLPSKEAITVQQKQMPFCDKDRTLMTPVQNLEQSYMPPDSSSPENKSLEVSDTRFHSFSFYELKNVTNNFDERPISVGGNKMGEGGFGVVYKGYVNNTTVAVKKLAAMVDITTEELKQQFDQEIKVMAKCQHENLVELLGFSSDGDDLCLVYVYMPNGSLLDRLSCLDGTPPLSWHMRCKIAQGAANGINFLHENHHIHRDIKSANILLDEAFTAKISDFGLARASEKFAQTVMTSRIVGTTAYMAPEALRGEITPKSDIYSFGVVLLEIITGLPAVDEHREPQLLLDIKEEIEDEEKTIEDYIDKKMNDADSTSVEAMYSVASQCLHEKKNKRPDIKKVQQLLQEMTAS
# measurement_notes: IRAK4 MSD Degradation in OCI-LY10
# Type: cell-based
# settings: OCI-LY10 cells, 24 hrs incubation, read-out: IRAK4 degradation in OCI-LY10 at 24 hrs: DC50

Examples with answers:
- compound: "CC(C)(O)c1cc2nn([C@H]3CC[C@H](CN4CCO[C@@H](CCNc5cccc6c5C(=O)N(C5CCC(=O)NC5=O)C6=O)C4)CC3)cc2cc1NC(=O)c1cccc(C(F)(F)F)n1 (some centres unmarked)"
  assay_target: "IRAK4 (Homo sapiens)"
  readout_type: "DC50"
  result: "< 50 nM"
- compound: "COc1cc2nn(C3CCC(CN4CC5(CCC(CNc6cccc7c6C(=O)N(C6CCC(=O)NC6=O)C7=O)CC5)C4)CC3)cc2cc1NC(=O)c1cccc(C(C)(F)F)n1 (centres unmarked)"
  assay_target: "IRAK4 (Homo sapiens)"
  readout_type: "DC50"
  result: "50 to 100 nM"
- compound: "COc1cc2nn([C@H]3CC[C@H](CN4CCC5(CC4)CC(CNc4cccc6c4C(=O)N(C4CCC(=O)NC4=O)C6=O)C5)CC3)cc2cc1NC(=O)c1coc(-c2ccnc(C)c2)n1 (some centres unmarked)"
  assay_target: "IRAK4 (Homo sapiens)"
  readout_type: "DC50"
  result: "50 to 100 nM"

Ask: Input CN(C[C@H]1CC[C@H](n2cc3cc(NC(=O)c4cccc(C(C)(C)C)n4)c(C(C)(C)O)cc3n2)CC1)[C@H]1CC[C@H](Nc2cccc3c2C(=O)N(C2CCC(=O)NC2=O)C3=O)CC1 (some centres unmarked) , output reported DC50.
Result: 50 to 100 nM

Ask: Input O=C1CCC(N2C(=O)c3ccc(NCC4CC5(C4)CN(C[C@H]4CC[C@H](n6cc7cc(NC(=O)c8cccc(S(F)(F)(F)(F)F)n8)c(N8CCCCC8)cc7n6)CC4)C5)cc3C2=O)C(=O)N1 (some centres unmarked) , output reported DC50.
Result: 100 to 500 nM

Ask: Input COc1cc2nn([C@H]3CC[C@H](CN(C)[C@H]4CC[C@@]5(CC4)C[C@@H](CNc4cccc6c4C(=O)N(C4CCC(=O)NC4=O)C6=O)C5)CC3)cc2cc1NC(=O)c1cccc(C(F)(F)F)n1 (some centres unmarked) , output reported DC50.
Result: 50 to 100 nM

Ask: Input C[C@]1(CN2CCC3(CC2)CC(CCNc2cccc4c2C(=O)N(C2CCC(=O)NC2=O)C4=O)C3)Cc2cc(NC(=O)c3cnn4cccnc34)c(N3CCOCC3)cc2O1 (some centres unmarked) , output reported DC50.
Result: 500 to 1000 nM

Ask: Input COc1cc2nn([C@H]3CC[C@H](CN4CCC(O[C@H]5CC[C@H](CNc6cccc7c6C(=O)N(C6CCC(=O)NC6=O)C7=O)CC5)CC4)CC3)cc2cc1NC(=O)c1cccc(C(C)(C)F)n1 (some centres unmarked) , output reported DC50.
Result: 50 to 100 nM

Ask: Input COc1cc2nn([C@H]3CC[C@H](CN4CC5(CC([C@H](C)CNc6cccc7c6C(=O)N(C6CCC(=O)NC6=O)C7=O)C5)C4)CC3)cc2cc1NC(=O)c1cccc(C(F)(F)F)n1 (some centres unmarked) , output reported DC50.
Result: < 50 nM

Ask: Input COc1cc2nn([C@H]3CC[C@H](CN(C)CCCO[C@H]4C[C@H](Nc5cccc6c5C(=O)N(C5CCC(=O)NC5=O)C6=O)C4)CC3)cc2cc1NC(=O)c1cccc(C(F)(F)F)n1 (some centres unmarked) , output reported DC50.
Result: 50 to 100 nM

Ask: Input CN(C[C@H]1CC[C@H](n2cc3cc(NC(=O)c4cccc(C(F)(F)F)n4)c(C(C)(C)O)cc3n2)CC1)C1CCN(Cc2cccc3c2n(C)c(=O)n3C2CCC(=O)NC2=O)CC1 (some centres unmarked) , output reported DC50.
Result: 100 to 500 nM
